- protocol text: Solubility test of sulfate (Crystalline form III) in various solvents
- Type: physicochemical
- assay setup: organic solvent or mixture, thermodynamic from solid; Acetone, 50° C.; read-out: Solubility
- Experimental: First, solvent screening was performed for a study on various crystalline forms.
outcome measure: solubility

Exercise: Can you look up the measured solubility of O=S1(=O)CCN(Cc2cc(NC3CCOCC3)c3[nH]c(-c4ccccc4)cc3c2)CC1 [Sulfate] for me?
Solution: < 2000 µg/mL

* * *

- protocol text: Solubility test of sulfate (Crystalline form III) in various solvents
- Assay type: physicochemical
- assay setup: organic solvent or mixture, thermodynamic from solid; Toluene, 50° C.; read-out: Solubility
outcome measure: solubility

Exercise: Fill in: solubility of O=S1(=O)CCN(Cc2cc(NC3CCOCC3)c3[nH]c(-c4ccccc4)cc3c2)CC1 [Sulfate] is ___
Solution: < 2000 µg/mL
